# measurement protocol: amyloid nucleation score (Sup35N fusion, yeast selection) (log enrichment); library NNK3; higher = more nucleation; inactive = no reads after selection;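 note: zero at mode of non-aggregating sequences after 7 days selection at 30°C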
value type: amyloid nucleation score

>>> df
               substance    result
 0  MSSSIILWNFCNMDRCSLLV    -0.084
 1  RTAWHMCLFCLNVTNLSWLM      2.15
 2       GCVSGRHDNTFRDYD  inactive
 3          NSTKLKPYWGPG  inactive
 4  GNYSREVRKNVYPETGVRQM  inactive
 5               HASSHYT  inactive
 6       LYSCRFMNLKTYLVL  inactive
 7  NGIMLQIRNPSSKLNNLLWF  inactive
 8  ILVTLMVYIPHEYISVINLL  inactive
 9  LYVTRVSVSVVTYRFTCKRV  inactive
10   CECTRVCRVCPSVSMHAIK  inactive
11  KVRQARGILASEGIGQETVG      1.33
12  RVSRAGMIMGPMLLFNKYFD  inactive
13                RNYNVV  inactive
14  RFSMNASYFYYVIMFSDCYS  inactive
15  YQQSIVHVRRFTYRRAPVVA     -0.46
16          YHPYRWLHESRL  inactive
17   ALGIICVGLAFDGSLDLTS      1.25
18             NSNCYPLVI  inactive
19    GSCWLDVCQDCKSFSILS  inactive
20        SCRLWHKRANRVGF  inactive
21  KAREVGIQWRKWSIIAWNNW      1.45
22  VHREVGLDFYDNVTCTMFHI  inactive
23  FHNCLGTNKNGVLLNGMVWN  inactive
24  RLNAYMCLEMVTLSTRKHVG      1.79
25  DLQFGVGVTASPAAYCRYLS  inactive
26  IGSYIKEGCAITMSRPLFKG  inactive
27  KPPGLNRHYTSCDMLSWALN  inactive
28          CLFRDDRNRVDI  inactive
29        SLLLLSGFEVSSKR  inactive
30            WVQVRRVKIE  inactive
31  CVNMLRKTVIYFLHFPAYYR  inactive
32  TLGPKEGWLVSNWMWSRVII  inactive
33  WWRKPLTFNDRIWRLRKHRS  inactive
34  RGCKKLYRIKANVMYVSTVN  inactive
35  YRLPMILKFLNWGFSYLVPF  inactive

====

# measurement protocol: amyloid nucleation score (Sup35N fusion, yeast selection) (log enrichment); library NNK1; higher = more nucleation; inactive = no reads after selection
Recorded amyloid nucleation score split into classes one (below -0.04), two (-0.04 to below 0.8), three (0.8 or more)

>>> print(df.to_string())
               substance  class_assignment
 0  YLLLLDGGPSPVLAIRHVNG               one
 1               FHALGCK               one
 2  QIRLYSSGWMFGCAAYVVSM             three
 3  NHALYDIWLIALSSRLYCQN               two
 4  VNRALAFNCWSALILGNAVV               one
 5                GSQIWW               two
 6  VRGVARYNRKFGDCFYPTHG               two
 7                DMEKVV               two
 8          NLLLIMDFVGWV             three
 9   LRLENAQLSFTFEYWILYG               one
10                MTRVCL               two
11               WHRSIWR               two
12  LICLGRPTSNTELGMNDINF               one
13          SFKPSSFKFTIT               one
14    YHVWTFWRRLETRINFQM             three
15  WASEMRHGWRAHNIYVGEDC             three
16           RNVCIIVVSEW             three
17   ISNGIYISKEGFHEWSNRH             three
18  WFPCVADINICPLGLYHSEG             three
19               FWCMALK               one
20  RRATLSHAPGGPMGLEWSRW               two
21                MNMVCS             three
22  FQWNAANYANSYPCKLLCSA             three
23     GFSLDRFSDHVLMGNSD               one
24  LLMYKKCRQWGCGNVSCSFD             three
25  HASWVRAITWVHQAGTYVML               one
26  TSENLNSASNLSSYVADMPI               two
27  VQFGQIIEWVFHMLVSTTTI               two
28  SPSSVYVINLNSNLRGNGFA             three
29  HTTFKGKSEAATRIIATQAR               two
30                LLNFFK               two
31  RKVMKTRVSIDHVNFAERRF             three
32  TTLVQCQFIPTFCVIPMWLL             three
33       LSCDVQWLCLESNCE             three
34              TASICSYR               one
35  RFVMRPFATVSTFSISVPAC               one
36      CVYSFNWLRLLGALSG             three
37  TISGNVSCQKYSRLCVQGLS               two
38  RWPVFNSCLSSSPRRAEYRY               two
39  RWRLFLRAMSLYDDVSHASA               two
40  VATCWRYSGMSARLLSGSLN               two
41            VSVTVLGRWR             three
42  IVVFQGVCTKMLRTDELIWR             three
43  TLSGFYPMYHHLCHECVLKP             three
44       SFRYVGCWYMARWFS               one
45  RTLSWFRRKIIVLYLYYTHS               one
46        DAIPFMFPNLMVMK               two
47  YSFRAIDTQLTQTLTWLLIR               one
48  MSMLLDSDCLRYFSQEVFWV               one
49  QISNRYPLVRPTLLFCGFPF               one
50  NGFCEVDIVLFRVEVVAACV               one
51    TRHCMRLWECKHEMRTAN               one
52           ELSYSYQSGID               two
53  SWVGRAVVEYSARARASTES               one
54  HVYVWKRTVPGIGRDQHNSR             three
55  SAVWEVVEGDVLMWSYMKSP               two
56  HTYDGHSVSGCTGHVMFLSS               two
57  KIGRGRSNAVLLLAEDVYVG               one
58                VANFET               one
59  STRFPRLDALNGKKFYRKNT               two
60       QSTNLAFLRICECSE             three
61  FVTMAVWGLYTCFKVHKGIV               one
62  ILSFSVRLPVHDSSLCFGSG               two
63  AAFDRNSEGNAPMPVMCPCI               two
64    LSRHGKVKCKLLATGGLT               two
65  GFYGNIYFDNLRLNVMTRRG             three
